biological target: human D2 receptor (Homo sapiens (Human), UniProt P14416); test: Test 1: binding activity for human D2 receptor ([3H]Spiperone); details: ratio of D2 Ki to 5-HT2A Ki
Sequence (P14416 whole entry): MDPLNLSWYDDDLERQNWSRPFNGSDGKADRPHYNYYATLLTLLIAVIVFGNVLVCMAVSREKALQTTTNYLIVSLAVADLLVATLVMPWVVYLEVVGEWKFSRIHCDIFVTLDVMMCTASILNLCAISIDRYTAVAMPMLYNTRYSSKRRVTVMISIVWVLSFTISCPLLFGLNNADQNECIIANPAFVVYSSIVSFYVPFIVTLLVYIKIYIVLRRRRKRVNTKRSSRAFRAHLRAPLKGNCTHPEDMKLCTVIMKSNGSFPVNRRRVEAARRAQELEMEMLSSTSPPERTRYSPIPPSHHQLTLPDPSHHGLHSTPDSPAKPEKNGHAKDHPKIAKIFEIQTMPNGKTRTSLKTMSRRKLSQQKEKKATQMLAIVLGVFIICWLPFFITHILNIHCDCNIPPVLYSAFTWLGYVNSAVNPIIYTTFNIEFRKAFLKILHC
Below, each entry is listed with its recorded D2 Ki/5-HT2A Ki.
Could you keep your reply to the number by itself?

Query: Give D2 Ki/5-HT2A Ki for the following molecule: Cc1ccc2c(C3CCN(CCn4ccc5cccnc5c4=O)CC3)noc2c1 [Example 118]
Result: 27.6

Query: Give D2 Ki/5-HT2A Ki for the following molecule: Cn1ncc2c1C(=O)N(CCN1CCC(c3noc4ccccc34)CC1)CC2 [Example 96]
Result: 14

Query: Give D2 Ki/5-HT2A Ki for the following molecule: O=C1c2cnc(OC3COC3)cc2CCN1CCN1CCN(c2nsc3ccccc23)CC1 [Example 111]
Result: 530
